assay: in vivo; conditions: female, athymic nude-Foxn1nu/Foxn1+, mouse, 20 pmol, total radioactivity, Biodistribution Stomach
Where a SMILES comes first, the peptide text is derived from it. Bridges are numbered along the chain shown (N, C = ends). [ ]: non-standard residue; d: D form. The star is where a group is joined. dPhe(4-NHCONH2) = NC(=O)Nc1ccc(C[C@@H](N)C(=O)O)cc1; Phe(4-Cl) = N[C@@H](Cc1ccc(Cl)cc1)C(=O)O; X1 = NCCNCC(CNCCN)C(=O)*
OBSERVED PROPERTY: tissue uptake at 4 h (%ID/g)
Field: numeric (%ID/g). Do not append units.

COMPOUND | tissue uptake at 4 h, %ID/g
C[C@@H](O)[C@@H]1NC(=O)[C@H](CCCCN)NC(=O)[C@@H](Cc2c[nH]c3ccccc23)NC(=O)[C@H](Cc2ccc(O)cc2)NC(=O)[C@H](NC(=O)[C@H](Cc2ccc(Cl)cc2)NC(=O)C(CNCCN)CNCCN)CSSC[C@@H](C(=O)N[C@H](Cc2ccc(O)cc2)C(N)=O)NC1=O [[^99mTc]Tc-TECANT-2, metal not drawn] | 2.17

Please look at the following compound next.
*Q* Request the reported tissue uptake at 4 h associated with C[C@@H](O)[C@@H]1NC(=O)[C@H](CCCCN)NC(=O)[C@@H](Cc2ccc(NC(N)=O)cc2)NC(=O)[C@H](Cc2ccc(O)cc2)NC(=O)[C@H](NC(=O)[C@H](Cc2ccc(Cl)cc2)NC(=O)C(CNCCN)CNCCN)CSSC[C@@H](C(=O)N[C@H](Cc2ccc(O)cc2)C(N)=O)NC1=O [[^99mTc]Tc-TECANT-1, metal not drawn] (X1-[Phe(4-Cl)][dC]Y[dPhe(4-NHCONH2)]KTC[dY]-NH2; disulfide 2-7)
*A* 13.6

###

Some molecules, each annotated with its measured tissue uptake at 4 h.
assay: in vivo; conditions: female, athymic nude-Foxn1^nu/Foxn1^+, mouse, 20 pmol, total radioactivity, Biodistribution Pancreas
Where a SMILES comes first, the peptide text is derived from it. Bridges are numbered along the chain shown (N, C = ends). [ ]: non-standard residue; d: D form. The star is where a group is joined. dPhe(4-NHCONH2) = NC(=O)Nc1ccc(C[C@@H](N)C(=O)O)cc1; Phe(4-Cl) = N[C@@H](Cc1ccc(Cl)cc1)C(=O)O; X1 = NCCNCC(CNCCN)C(=O)*
Field: numeric (%ID/g). Do not append units.

MOLECULE | TEST RESULT
C[C@@H](O)[C@@H]1NC(=O)[C@H](CCCCN)NC(=O)[C@@H](Cc2ccc(NC(N)=O)cc2)NC(=O)[C@H](Cc2ccc(O)cc2)NC(=O)[C@H](NC(=O)[C@H](Cc2ccc(Cl)cc2)NC(=O)C(CNCCN)CNCCN)CSSC[C@@H](C(=O)N[C@H](Cc2ccc(O)cc2)C(N)=O)NC1=O [[^99mTc]Tc-TECANT-1, metal not drawn] (X1-[Phe(4-Cl)][dC]Y[dPhe(4-NHCONH2)]KTC[dY]-NH2; disulfide 2-7) | 16.9

*Q* Request the reported tissue uptake at 4 h associated with C[C@@H](O)[C@@H]1NC(=O)[C@H](CCCCN)NC(=O)[C@@H](Cc2c[nH]c3ccccc23)NC(=O)[C@H](Cc2ccc(O)cc2)NC(=O)[C@H](NC(=O)[C@H](Cc2ccc(Cl)cc2)NC(=O)C(CNCCN)CNCCN)CSSC[C@@H](C(=O)N[C@H](Cc2ccc(O)cc2)C(N)=O)NC1=O [[^99mTc]Tc-TECANT-2, metal not drawn]
*A* 1.96
